Entries annotated with measured fraction unbound
Assay: Rat brain protein binding in rat brain slices
Type: in vitro ADME
Conditions: rat brain slices (300 um thick); 300 um thick rat brain slices (striatum area); read-out: fu,brain (rat brain slices)
Reply with the value as a number alone.

| MOLECULE | fraction unbound |
| --- | --- |
| CCn1cc(-c2cc3c(N4CCN(c5ncc([C@@](C)(N)c6ccc(F)cc6)cn5)CC4)ncnn3c2)cn1 [Compound 63, reference compound] | 0.00057 |

Please look at the following molecule next.
The molecule `C[C@](N)(c1ccc(F)cc1)c1cnc(N2CCN(c3ncnn4cc(-c5cnn(CCO)c5)cc34)CC2)nc1` showed fraction unbound equal to 0.00329

###

Assay: Brain penetration in rats, brain to plasma ratios (Kp,brain, Kpuu,brain)
Format: in vivo, Sprague-Dawley rats
Conditions: Sprague-Dawley, rat, brain, intravenous, 1 mg/kg/hr, homogenate rat brain; read-out: Rat Kp, uu Homogenate
VALUE_KIND: Kp uu at 24 h
Reply with the value as a number alone.

// known answers, use as guide
| COMPOUND | Kp uu at 24 h |
| --- | --- |
| C[C@](N)(c1ccc(F)cc1)c1cnc(N2CCN(c3ncnn4cc(-c5cnn([C@H]6CC[C@@H]6O)c5)cc34)CC2)nc1 (single isomer, unassigned) [Compound 21] | 0.36 |
| C[C@](N)(c1ccc(F)cc1)c1cnc(N2CCN(c3ncnn4cc(-c5cnn([C@@H]6CCOC6)c5)cc34)CC2)nc1 [Compound 14] | 0.22 |

Please look at the following compound next.
The compound C[C@](N)(c1ccc(F)cc1)c1cnc(N2CCN(c3ncnn4cc(-c5cnn([C@H]6CCOC6)c5)cc34)CC2)nc1 [Compound 15] showed Kp uu at 24 h equal to 0.62

###

Molecular target: CYP3A4 (Homo sapiens (Human), UniProt P08684)
Sequence (P08684 whole entry): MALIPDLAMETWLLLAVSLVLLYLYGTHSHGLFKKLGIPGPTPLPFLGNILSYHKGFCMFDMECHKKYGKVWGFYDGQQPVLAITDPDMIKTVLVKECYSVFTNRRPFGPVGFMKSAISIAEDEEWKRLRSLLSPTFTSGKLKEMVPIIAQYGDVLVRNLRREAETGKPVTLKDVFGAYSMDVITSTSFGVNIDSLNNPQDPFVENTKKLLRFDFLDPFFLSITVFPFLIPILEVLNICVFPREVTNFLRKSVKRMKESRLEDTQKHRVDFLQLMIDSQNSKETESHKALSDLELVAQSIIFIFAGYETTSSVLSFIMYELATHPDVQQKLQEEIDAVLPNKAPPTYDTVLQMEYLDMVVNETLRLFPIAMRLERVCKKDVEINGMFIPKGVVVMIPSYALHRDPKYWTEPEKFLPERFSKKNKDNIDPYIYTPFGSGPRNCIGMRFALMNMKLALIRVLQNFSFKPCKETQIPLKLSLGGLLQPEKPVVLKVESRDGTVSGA
Experiment: CYP inhibition in human liver microsomes, CYP3A4 (midazolam/testosterone)
Type: in vitro ADME
Settings: pooled human liver microsomes, substrate testosterone; read-out: CYP3A4 IC50 (μM) testosterone
VALUE_KIND: IC50

The molecule `C[C@](N)(c1ccc(F)cc1)c1cnc(N2CCN(c3ncnn4cc(-c5cnn(CCO)c5)cc34)CC2)nc1` showed IC50 equal to ≥ 10 µM

###

Molecular target: CYP3A4 (Homo sapiens (Human), UniProt P08684)
Assay: CYP inhibition in human liver microsomes, CYP3A4 (midazolam/testosterone)
Type: in vitro ADME
Details: pooled human liver microsomes, substrate midazolam; read-out: CYP3A4 IC50 (μM) midazolam
VALUE_KIND: IC50

The compound C[C@](N)(c1ccc(F)cc1)c1cnc(N2CCN(c3ncnn4cc(-c5cnn(CCO)c5)cc34)CC2)nc1 [Compound 4] showed IC50 equal to ≥ 10 µM

###

Entries annotated with measured IC50
System: UT-7 cells
Experiment: UT-7 cell proliferation with SCF stimulation as a measure of wild-type KIT activity (CellTiter-Glo)
Format: cell-based, human
Details: Homo sapiens, UT7, 72 h, SCF-stimulated UT-7 cell proliferation

| MOLECULE | SYSTEM_NAME | IC50 |
| --- | --- | --- |
| C[C@H](O)Cn1cc(-c2cc3c(N4CCN(c5ncc([C@@](C)(N)c6ccc(F)cc6)cn5)CC4)ncnn3c2)cn1 | UT-7 cells | 90.1 to 150 nM |
| C[C@@H](O)Cn1cc(-c2cc3c(N4CCN(c5ncc([C@@](C)(N)c6ccc(F)cc6)cn5)CC4)ncnn3c2)cn1 | UT-7 cells | < 90 nM |
| C[C@](N)(c1ccc(F)cc1)c1cnc(N2CCN(c3ncnn4cc(-c5cnn([C@@H]6COC[C@H]6O)c5)cc34)CC2)nc1 (single isomer, unassigned) | UT-7 cells | 90.1 to 150 nM |

Please look at the following molecule next.
The molecule `C[C@](N)(c1ccc(F)cc1)c1cnc(N2CCN(c3ncnn4cc(-c5cnn(C6COC6)c5)cc34)CC2)nc1` showed IC50 equal to 90.1 to 150 nM

###

pKd: −log10 of the molar value.
Assay read-out pKd; system under study: wt KIT kinase (Homo sapiens (Human)).
Sequence (P10721 26-976): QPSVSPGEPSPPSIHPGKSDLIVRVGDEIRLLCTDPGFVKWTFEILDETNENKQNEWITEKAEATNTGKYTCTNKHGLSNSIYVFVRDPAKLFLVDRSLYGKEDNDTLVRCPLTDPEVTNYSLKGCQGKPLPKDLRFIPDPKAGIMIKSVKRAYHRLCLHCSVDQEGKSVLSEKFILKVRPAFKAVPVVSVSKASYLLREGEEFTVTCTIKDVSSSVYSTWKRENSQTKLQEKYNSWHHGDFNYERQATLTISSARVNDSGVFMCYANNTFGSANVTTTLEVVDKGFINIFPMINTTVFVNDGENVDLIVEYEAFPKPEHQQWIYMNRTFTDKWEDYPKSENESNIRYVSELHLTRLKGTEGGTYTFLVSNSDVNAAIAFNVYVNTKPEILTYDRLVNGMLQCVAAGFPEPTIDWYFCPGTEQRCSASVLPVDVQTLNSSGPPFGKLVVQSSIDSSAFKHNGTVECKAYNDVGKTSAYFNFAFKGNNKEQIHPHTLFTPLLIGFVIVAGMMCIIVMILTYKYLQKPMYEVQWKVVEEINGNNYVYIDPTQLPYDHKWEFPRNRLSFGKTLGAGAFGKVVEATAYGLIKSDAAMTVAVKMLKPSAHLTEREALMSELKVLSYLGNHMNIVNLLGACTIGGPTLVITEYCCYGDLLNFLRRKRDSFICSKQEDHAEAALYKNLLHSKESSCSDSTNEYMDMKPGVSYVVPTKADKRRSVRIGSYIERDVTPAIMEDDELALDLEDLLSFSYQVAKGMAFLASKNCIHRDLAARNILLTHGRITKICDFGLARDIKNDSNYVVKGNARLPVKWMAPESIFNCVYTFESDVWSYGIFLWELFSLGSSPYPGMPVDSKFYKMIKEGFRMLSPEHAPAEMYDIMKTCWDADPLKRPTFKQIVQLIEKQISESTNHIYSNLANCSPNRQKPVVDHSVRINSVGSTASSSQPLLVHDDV

// known answers, use as guide
| COMPOUND | pKd |
| --- | --- |
| C[C@](N)(c1ccc(F)cc1)c1cnc(N2CCN(c3ncnn4cc(-c5cnn(C6CCOCC6)c5)cc34)CC2)nc1 | > 8.00 |
| C[C@](N)(c1ccc(F)cc1)c1cnc(N2CCN(c3ncnn4cc(-c5cnn(CC6COC6)c5)cc34)CC2)nc1 | > 8.00 |
| C[C@](N)(c1ccc(F)cc1)c1cnc(N2CCN(c3ncnn4cc(-c5cnn([C@H]6CCOC6)c5)cc34)CC2)nc1 | > 8.00 |
| CCn1cc(-c2cc3c(N4CCN(c5ncc([C@@](C)(N)c6ccc(F)cc6)cn5)CC4)ncnn3c2)cn1 [Compound 63, reference compound] | 7.70 to 7.82 |

Please look at the following compound next.
The compound C[C@](N)(c1ccc(F)cc1)c1cnc(N2CCN(c3ncnn4cc(-c5cnn([C@H]6COC[C@@H]6O)c5)cc34)CC2)nc1 (single isomer, unassigned) showed pKd equal to > 8.00

###

Molecular target: KIT D816V (Homo sapiens (Human), UniProt P10721, D816V)
Sequence (P10721 26-976 D816V): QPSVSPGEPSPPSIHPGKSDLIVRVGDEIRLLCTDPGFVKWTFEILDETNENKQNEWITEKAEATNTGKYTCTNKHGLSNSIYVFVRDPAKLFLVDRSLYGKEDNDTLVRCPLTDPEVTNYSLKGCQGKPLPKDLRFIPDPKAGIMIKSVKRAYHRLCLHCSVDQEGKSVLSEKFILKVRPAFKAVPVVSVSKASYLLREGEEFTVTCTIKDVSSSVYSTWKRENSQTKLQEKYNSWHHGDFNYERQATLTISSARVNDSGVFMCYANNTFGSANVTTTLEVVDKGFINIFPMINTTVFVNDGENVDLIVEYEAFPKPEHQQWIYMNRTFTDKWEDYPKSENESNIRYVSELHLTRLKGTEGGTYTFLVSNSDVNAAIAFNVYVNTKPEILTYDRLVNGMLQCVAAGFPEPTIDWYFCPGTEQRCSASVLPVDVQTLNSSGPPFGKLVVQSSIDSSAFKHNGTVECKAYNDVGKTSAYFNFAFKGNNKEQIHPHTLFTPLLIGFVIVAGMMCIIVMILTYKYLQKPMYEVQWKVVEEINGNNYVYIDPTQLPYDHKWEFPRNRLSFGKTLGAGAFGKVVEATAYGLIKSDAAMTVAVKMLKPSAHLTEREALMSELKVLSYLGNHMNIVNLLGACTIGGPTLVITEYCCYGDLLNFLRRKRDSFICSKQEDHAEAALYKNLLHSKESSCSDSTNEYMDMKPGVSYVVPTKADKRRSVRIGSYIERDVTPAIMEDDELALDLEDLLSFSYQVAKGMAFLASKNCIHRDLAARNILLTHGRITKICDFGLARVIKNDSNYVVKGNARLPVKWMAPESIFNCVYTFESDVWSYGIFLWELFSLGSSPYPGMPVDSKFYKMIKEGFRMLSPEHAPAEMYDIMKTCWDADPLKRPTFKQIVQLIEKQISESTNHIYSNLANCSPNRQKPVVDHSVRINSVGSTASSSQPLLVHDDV
Assay: KIT D816V biochemical enzymatic activity assay (EZReader 2 mobility shift)
Conditions: at APPKM for ATP, 20 μM ATP, 60 minutes
pIC50: −log10 of the molar value.
VALUE_KIND: pIC50

| COMPOUND | pIC50 |
| --- | --- |
| C[C@](N)(c1ccc(F)cc1)c1cnc(N2CCN(c3ncnn4cc(-c5cnn([C@H]6C[C@H](O)C6)c5)cc34)CC2)nc1 [Compound 11] | ≥ 9.52 |
| C[C@](N)(c1ccc(F)cc1)c1cnc(N2CCN(c3ncnn4cc(-c5cnn([C@@H]6COC[C@@H]6O)c5)cc34)CC2)nc1 (single isomer, unassigned) [Compound 17] | 9.00 to 9.51 |

Please look at the following compound next.
The compound C[C@](N)(c1ccc(F)cc1)c1cnc(N2CCN(c3ncnn4cc(-c5cnn([C@H]6CC[C@@H]6O)c5)cc34)CC2)nc1 (single isomer, unassigned) [Compound 21] showed pIC50 equal to 9.00 to 9.51

###

Molecular target: KIT D816V (Homo sapiens (Human), UniProt P10721, D816V/V560G)
Sequence (P10721 26-976 V560G/D816V): as the sequence (P10721 26-976) above, with V535G, D791V counted along it
Assay: HMC1.2 autophosphorylation assay (phospho-Y719 KIT AlphaLISA)
Type: cell-based
Conditions: HMC1.2 cell line, KIT autophosphorylation at tyrosine 719, 90 minutes; read-out: KIT (P-KIT HMC1.2 (nM))
VALUE_KIND: IC50

// known answers, use as guide
| MOLECULE | IC50 |
| --- | --- |
| C[C@](N)(c1ccc(F)cc1)c1cnc(N2CCN(c3ncnn4cc(-c5cnn(CC6COC6)c5)cc34)CC2)nc1 [Compound 8] | < 4.5 nM |
| C[C@](N)(c1ccc(F)cc1)c1cnc(N2CCN(c3ncnn4cc(-c5cnn([C@H]6CC[C@@H]6O)c5)cc34)CC2)nc1 (single isomer, unassigned) [Compound 21] | < 4.5 nM |

Please look at the following molecule next.
The molecule C[C@](N)(c1ccc(F)cc1)c1cnc(N2CCN(c3ncnn4cc(-c5cnn([C@@H]6COC[C@H]6O)c5)cc34)CC2)nc1 (single isomer, unassigned) [Compound 19] showed IC50 equal to < 4.5 nM

Where do the numbers come from? From patent US10829493B2.
